- TEST_DETAILS: Partition coefficient (logD7.4)
- ASSAY_SETUP: octanol/water, pH 7.4
OBSERVABLE: logD

// recorded logD for Nc1nc(N)c2nc(-c3ccccc3)c(N)nc2n1 : 1.21

The value of logD measured for the compound O=C(NCC1CCCCN1)c1cc(OCC(F)(F)F)ccc1OCC(F)(F)F (stereo not drawn) [FLECAINIDE] turned out to be 0.97

The recorded logD for O=[N+]([O-])c1ccc(/C=N/O)o1 is 1.28

meta.source: ChEMBL document CHEMBL1134540
